Below, each entry is listed with its recorded EC50.
- EXPERIMENTAL TARGET: human 4-1BB on CHO-K1 cells (human, UniProt Q07011 24-255)
- Sequence (Q07011 24-255): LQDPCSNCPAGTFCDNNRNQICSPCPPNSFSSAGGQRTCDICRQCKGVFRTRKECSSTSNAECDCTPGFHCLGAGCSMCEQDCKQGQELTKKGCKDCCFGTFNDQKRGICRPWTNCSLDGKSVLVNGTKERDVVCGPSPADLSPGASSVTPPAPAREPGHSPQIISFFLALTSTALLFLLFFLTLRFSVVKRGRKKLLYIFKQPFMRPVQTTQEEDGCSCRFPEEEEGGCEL
- METHOD NOTES: FACS
Just the number in nM, nothing appended.

Reference set (3 entries):
PR001833 (antibody, V domains shown) VH: EVQLLESGGGLVQPGGSLRLSCAASGFTFSSYAMSWVRQAPEKGLEWVSSISGSGGSTFYADSVKGRFTISRDNSKNTLYLQMNSLRAEDTAVYFCAKEGATETDDYHFNTDVWGQGTTVTVSS = 0.21
PR001836 (antibody, V domains shown) VH: EVQLLESGGGLVQPGGSLRLSCAASGFIFSNFAMTWVRQPPEKGLKWVSSINGSGFNTYYTDSVKGRFTISRDNSRNTLYLQMNRLTAEDTAVYFCAKEGSSETDDHYYNVDVWGQGTTVTVSS = 0.28
PR001838 (antibody, V domains shown) VH: EVQLLESGGGLVQPGGSLRLSCAASGFTFSNYAMSWFRQPPETGLKWVSSIDGSGGDTYYADSVKGRFTISRDNSKNTLYLQMNSLRAEDTAVYYCAKEGSHGTDDSHYDVDVWGQGTTVTVSS = 0.248

# context switch: different binder, same EC50
[in] Which EC50 reading was recorded for the binder PR001834 (antibody, V domains shown) VH: EVQLLESGGGLVQPGGSLRLSCAASGFTFSGYAMTWVRQPPEKGLEWVSSISGSGNNTFYADSVKGRFTISRDNSKNTLYLQMNSLRAEDTAVYYCAKEGTTETDDYHYNMDVWGQGTTVTVSS ?
[out] 0.449
